method_summary: Single- versus multi-dose
assay_context: both, Sprague-Dawley, rat, in vivo, po, 3.75 mg/kg
quantity_name: Tmax at 7 days (h)

1) Cc1ccc(C(=O)Nc2ccc(CN3CCN(C)CC3)c(C(F)(F)F)c2)cc1C#Cc1cnc2cccnn12	6.67

* * *

method_summary: Single-dose pharmacokinetics of ponatinib in rats
Format: in vivo, Sprague–Dawley rats
assay_context: both, Sprague-Dawley, rat, plasma, po, 7.5 mg/kg, T 1/2, rat, i.g. 7.5 mg/kg
quantity_name: half-life (h)

1. Cc1ccc(C(=O)Nc2ccc(CN3CCN(C)CC3)c(C(F)(F)F)c2)cc1C#Cc1cnc2cccnn12 [ponatinib, Ponatinib]	10.9

* * *

method_summary: Single-dose pharmacokinetics of ponatinib in rats
Assay type: in vivo, Sprague–Dawley rats
assay_context: both, Sprague-Dawley, rat, plasma, iv, 3 mg/kg, T 1/2, rat, i.v. 3.0 mg/kg
quantity_name: half-life (h)

1) Cc1ccc(C(=O)Nc2ccc(CN3CCN(C)CC3)c(C(F)(F)F)c2)cc1C#Cc1cnc2cccnn12 [ponatinib, Ponatinib]	6.17

* * *

method_summary: Single-dose pharmacokinetics of ponatinib in rats
Assay type: in vivo, Sprague–Dawley rats
assay_context: both, Sprague-Dawley, rat, plasma, po, 30 mg/kg
quantity_name: AUC(0-inf) (ng·h/mL)

1. Cc1ccc(C(=O)Nc2ccc(CN3CCN(C)CC3)c(C(F)(F)F)c2)cc1C#Cc1cnc2cccnn12 [ponatinib, Ponatinib]	11600

* * *

method_summary: Single- versus multi-dose
assay_context: both, Sprague-Dawley, rat, in vivo, po, 3.75 mg/kg
quantity_name: half-life at 7 days (h)

1. Cc1ccc(C(=O)Nc2ccc(CN3CCN(C)CC3)c(C(F)(F)F)c2)cc1C#Cc1cnc2cccnn12	10.9

* * *

method_summary: Single-dose pharmacokinetics of ponatinib in rats
Format: in vivo, Sprague–Dawley rats
assay_context: both, Sprague-Dawley, rat, plasma, po, 30 mg/kg, T 1/2, rat, i.g. 30.0 mg/kg
quantity_name: half-life (h)

1. Cc1ccc(C(=O)Nc2ccc(CN3CCN(C)CC3)c(C(F)(F)F)c2)cc1C#Cc1cnc2cccnn12 [ponatinib, Ponatinib]	9.66

* * *

method_summary: Single-dose pharmacokinetics of ponatinib in rats
Format: in vivo, Sprague–Dawley rats
assay_context: both, Sprague-Dawley, rat, plasma, po, 7.5 mg/kg
quantity_name: AUC(0-inf) (ng·h/mL)

1) Cc1ccc(C(=O)Nc2ccc(CN3CCN(C)CC3)c(C(F)(F)F)c2)cc1C#Cc1cnc2cccnn12 [ponatinib, Ponatinib]	1910

* * *

method_summary: Single-dose pharmacokinetics of ponatinib in rats
Assay type: in vivo, Sprague–Dawley rats
assay_context: both, Sprague-Dawley, rat, plasma, iv, 3 mg/kg
quantity_name: AUC(0-inf) (ng·h/mL)

1) Cc1ccc(C(=O)Nc2ccc(CN3CCN(C)CC3)c(C(F)(F)F)c2)cc1C#Cc1cnc2cccnn12	2180
